Items are presented alongside their recorded CC50 at 96 h.
assay: Cytotoxicity against human HepG2 cells after 4 days by resazurin assay; assay type: cell-based

Solved cases below.
O=C(Nc1cccc(S(=O)(=O)NC2CCCCC2)c1)c1ccc(F)cc1 :: > 25 µM
CC1(NS(=O)(=O)c2cccc(C(=O)Nc3ccc(F)cc3)c2)COC1 :: > 100 µM
O=C(Nc1cccnc1)c1cc(S(=O)(=O)NC2CCCCC2)ccc1F :: > 25 µM

Fill blank: measured CC50 at 96 h of the compound `CC(C)(C)NS(=O)(=O)c1cccc(C(=O)Nc2ccc(F)cc2)c1` is ____.
52.5 µM

Entry under review: `CC[C@@H](C)NS(=O)(=O)c1cccc(C(=O)Nc2ccc(F)cc2)c1` . Reported CC50 at 96 h?
46 µM

Consider the compound shown here: `O=C(Nc1ccc(F)cc1)c1cccc(C(=O)NC2CCCCC2)c1` What is its recorded CC50 at 96 h?
> 100 µM

====

assay: AUC (0 to last) in C57BL/6 mouse at 50 mg/kg, sc by LC-MS/MS analysis; format: ADME, organism-based; set-up: dose 50 mg/kg, time 0 - last, route subcutaneous; conditions: in vivo
MEASURED_ATTRIBUTE: AUC(0-t)
Write your answer as a measured quantity: the number, then the unit.

Any idea what AUC(0-t) was measured for `Cc1cc(NC(=O)c2cccc(S(=O)(=O)N[C@H]3CCOC3)c2)ccc1F` ?
16900 ng·h/mL

====

test: AUC (0 to 8 hrs) in humanized mouse at 50 mg/kg, sc measured on day 1 post dose by LC-MS/MS analysis; type: ADME, organism-based; set-up: dose 50 mg/kg, time < 8 hr, route subcutaneous; details: in vivo
MEASURED_ATTRIBUTE: AUC(0-t) at 8 h (ng·h/mL)
Please state the figure in ng·h/mL; there is no need to write the unit.

# lookup: AUC(0-t) at 8 h of `Cc1cc(NC(=O)c2cccc(S(=O)(=O)N[C@H]3CCOC3)c2)ccc1F`
4750

====

molecular target: 5-hydroxytryptamine receptor 2B (Homo sapiens); assay: Antagonist activity at 5-HT2B (unknown origin)
Sequence (P41595 whole entry): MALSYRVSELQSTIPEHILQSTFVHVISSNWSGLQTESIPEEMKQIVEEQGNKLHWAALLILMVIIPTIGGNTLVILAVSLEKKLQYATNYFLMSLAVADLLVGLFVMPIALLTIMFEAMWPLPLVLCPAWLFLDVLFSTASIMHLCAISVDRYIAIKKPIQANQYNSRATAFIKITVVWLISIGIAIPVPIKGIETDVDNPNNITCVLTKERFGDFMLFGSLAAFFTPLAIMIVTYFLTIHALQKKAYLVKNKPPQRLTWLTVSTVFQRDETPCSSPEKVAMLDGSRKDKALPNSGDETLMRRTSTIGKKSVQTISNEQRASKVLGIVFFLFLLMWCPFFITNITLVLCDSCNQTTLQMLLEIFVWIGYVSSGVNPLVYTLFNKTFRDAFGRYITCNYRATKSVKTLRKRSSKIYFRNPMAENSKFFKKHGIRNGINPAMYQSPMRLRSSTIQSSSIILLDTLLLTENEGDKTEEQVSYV
Item-by-item account of IC50
Report as a plain number; the unit nM is understood.

CC(C)NS(=O)(=O)c1cccc(C(=O)Nc2ccc(F)c(F)c2)c1 :: 230

Turning now to a further molecule:
Please look up its IC50: `O=C(Nc1ccc(F)cc1)c1cccc(C(=O)NC2CCCCC2)c1`
90

====

experiment: AUC (0 to infinity) in humanized mouse at 50 mg/kg, sc measured on day 1 post dose by LC-MS/MS analysis; assay type: ADME, organism-based; set-up: dose 50 mg/kg, time infinity, route subcutaneous; conditions: in vivo
MEASURED_ATTRIBUTE: AUC(0-inf) (ng·h/mL)
Write it as a number; the unit ng·h/mL goes unstated.

// query AUC(0-inf) value for entry `Cc1cc(NC(=O)c2cccc(S(=O)(=O)N[C@H]3CCOC3)c2)ccc1F`
4780

====

assay: Kinetic solubility of the compound at pH 7.4 after 4 hrs by UPLC-UV analysis; assay type: physicochemical; conditions: buffer, read-out: Kinetic_solubility
Quick reference for solubility kinetic at 4 h among some compounds
Answer format: numeric, µM implied, no suffix.

Reference set, count: 2
CC(C)NS(=O)(=O)c1cccc(C(=O)Nc2ccc(F)c(C3CC3)c2)c1 :: 31
CCc1cc(NC(=O)c2cccc(S(=O)(=O)NC(C)C)c2)ccc1F :: 15

Moving on to another compound below.
Record request: solubility kinetic at 4 h value, item `CN(C1CCCC1)S(=O)(=O)c1cccc(C(=O)Nc2ccc(F)cc2)c1`
19

====

experiment: Drug metabolism in human liver microsomes at 1 uM after 15 mins by LC-MS/MS analysis; type: ADME, microsome; conditions: read-out: Drug metabolism
Cut-off 20% on metabolised at 0.25 h, 1 µM: below means 1.0, at or above means 0.0.

Below are worked cases with known answers.
O=C(Nc1ccc(F)cc1)c1cccc(NS(=O)(=O)C2CCCC2)c1 :: 1.0
Cc1c(F)ccc(NC(=O)c2cccc(S(=O)(=O)N[C@H]3CCOC3)c2)c1F :: 0.0
O=C(Nc1ccc(F)cc1)c1cccc(S(=O)(=O)NC2CCCCC2)c1 :: 0.0

Take the compound `N#Cc1cc(NC(=O)c2cccc(S(=O)(=O)N[C@H]3CCOC3)c2)ccc1F` and say whether its metabolised at 0.25 h, 1 µM is less than 20%.
1.0

Determine whether this compound shows metabolised at 0.25 h, 1 µM lower than 20% (ties excluded): `O=C(Nc1ccc(F)cc1)c1cccc(S(=O)(=O)N2CCOCC2)c1`
0.0

====

assay: Inhibition of calcium channel (unknown origin); parameters: species or system Homo sapiens
MEASURED_ATTRIBUTE: IC50

Look up IC50 for this compound: `Cc1cc(NC(=O)c2cccc(S(=O)(=O)N[C@H]3CCOC3)c2)ccc1F`
> 10 µM

====

assay: Oral bioavailability in C57BL/6 mouse at 10 mg/kg by LC-MS/MS analysis; type: ADME, organism-based; details: in vivo
MEASURED_ATTRIBUTE: bioavailability (%)
Supply the numeric figure in %, leaving out any unit text.

Fill in the blank: the reported bioavailability of `Cc1cc(NC(=O)c2cccc(S(=O)(=O)N[C@H]3CCOC3)c2)ccc1F` is ____.
40

====

experiment: Cmax in C57BL/6 mouse at 50 mg/kg, sc by LC-MS/MS analysis; type: ADME, organism-based; parameters: dose 50 mg/kg, route subcutaneous; settings: in vivo
MEASURED_ATTRIBUTE: Cmax (ng/mL)
Answer with a number only, understood to be in ng/mL.

Name the reported Cmax value associated with the compound `Cc1cc(NC(=O)c2cccc(S(=O)(=O)N[C@H]3CCOC3)c2)ccc1F`
3370

====

experiment: AUC (0 to last) in C57BL/6 mouse at 10 mg/kg, po by LC-MS/MS analysis; format: ADME, organism-based; parameters: dose 10 mg/kg, time 0 - last, route oral; details: in vivo
MEASURED_ATTRIBUTE: AUC(0-t)
Give the value; after it, write the unit.

Quick one: AUC(0-t) for `Cc1cc(NC(=O)c2cccc(S(=O)(=O)N[C@H]3CCOC3)c2)ccc1F` ?
1990 ng·h/mL

====

assay: Plasma concentration in humanized mouse at 50 mg/kg, sc after 24 hrs by LC-MS/MS analysis; assay type: ADME, organism-based
MEASURED_ATTRIBUTE: concentration at 24 h (µg/mL)
Answer with a number only, understood to be in µg/mL.

Give the measured concentration at 24 h of `Cc1cc(NC(=O)c2cccc(S(=O)(=O)N[C@H]3CCOC3)c2)ccc1F` .
0.167

====

test system: Hepatitis B virus; assay: Induction of HBV capsid core protein CP149 aggregation assessed as ratio between area under the curve for observed amount of core dimer and area under the curve for aggregated core protein at 20 uM after 24 hrs by size exclusion chromatographic analysis
MEASURED_ATTRIBUTE: Ratio
Enter the number alone.

Worked cases, answers included:
CC(C)(C)NS(=O)(=O)c1cccc(C(=O)Nc2ccc(F)cc2)c1 :: 0.9
O=C(Nc1ccc(F)cc1)c1cccc(S(=O)(=O)N2CCCCC2)c1 :: 0.4
O=C(Nc1ccc(F)cc1)c1ccc(Cl)c(S(=O)(=O)N2CCCCCC2)c1 :: 0.01

Provide value of Ratio for this record tested with Hepatitis B virus: `CCN(CC)S(=O)(=O)c1ccc(Cl)c(C(=O)Nc2ccccc2)c1`
0.7

Missing value: Ratio, Hepatitis B virus, entry `O=C(NCc1ccccc1)c1cc(S(=O)(=O)NC2CCCCC2)ccc1F` . Fill in?
8.4

Write down the reported Ratio of `CN1CCN(S(=O)(=O)c2cccc(C(=O)Nc3ccc(F)cc3)c2)CC1` , test system: Hepatitis B virus.
6.3

# query: Ratio | item `CC(=O)N1CCN(S(=O)(=O)c2cccc(C(=O)Nc3ccc(F)cc3)c2)CC1` | system: Hepatitis B virus
0.9

====

target: Core antigen (Hepatitis B virus) (UniProt Q03732); test: Induction of HBV Maleimidyl BoDIPY-FL-labeled capsid Cp*150 mutant aggregation incubated for 30 mins measured every 10 secs for 30 mins by fluorescence quenching assay
Sequence (Q03732 as listed by the source): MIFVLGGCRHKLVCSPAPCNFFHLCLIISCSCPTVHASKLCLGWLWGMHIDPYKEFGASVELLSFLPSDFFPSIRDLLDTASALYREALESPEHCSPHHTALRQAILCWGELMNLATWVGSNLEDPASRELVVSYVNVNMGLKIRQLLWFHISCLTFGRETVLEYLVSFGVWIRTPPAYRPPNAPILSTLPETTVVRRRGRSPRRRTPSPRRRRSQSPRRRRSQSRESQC
Active and inactive are the calls of the source. No cut-off for these calls is given here.
MEASURED_ATTRIBUTE: Activity

Here is how some molecules turned out for Activity.
O=C(Nc1ccc(F)cc1)c1ccc(Cl)c(S(=O)(=O)N2CCCCCC2)c1 :: Active
Cc1cc(NC(=O)c2cccc(S(=O)(=O)NC(C)C)c2)ccc1F :: Active
O=C(Nc1cccc2ccccc12)c1cc(S(=O)(=O)NC2CCCCC2)ccc1F :: inactive
O=C(Nc1cccnc1)c1cc(S(=O)(=O)NC2CCCCC2)ccc1F :: inactive

Proceeding to the next molecule to report its Activity.
Entry `Cc1cc(NC(=O)c2cccc(S(=O)(=O)NC3CCCC3)c2)ccc1F` : reported Activity = ?
Active

====

Each entry below lists one item and its recorded CC50 at 96 h value.
experiment: Cytotoxicity against human HepG2 cells after 4 days by resazurin assay; assay type: cell-based

O=C(Nc1ccc(F)cc1)c1cccc(NS(=O)(=O)C2CCCCC2)c1 :: 33.6 µM
O=C(Nc1ccc(F)cc1)c1cccc(S(=O)(=O)NC2CCCCC2)c1 :: > 25 µM
O=C(Nc1cccc2ccccc12)c1cc(S(=O)(=O)NC2CCCCC2)ccc1F :: > 25 µM

Now examine the next entry.
Reported CC50 at 96 h, molecule `O=C(Nc1cccc(F)c1)c1cccc(S(=O)(=O)NC2CCCC2)c1` : ____
> 25 µM
